Readings of chromatographic logP for the listed compounds
- protocol summary: logP determination by reversed-phase HPLC (C18), EEC Directive 79/831 Annex V.A8
- Type: physicochemical
- measurement parameters: reversed-phase c18 hplc; HPLC, 40°C, 0.1% aqueous formic acid / acetonitrile gradient 10% to 95%; read-out: log p
// return a plain number; no unit text

Example compounds with recorded chromatographic logP:
{"smiles record": "Cc1nnc(Cl)c(-c2cccs2)c1-c1ccc(Cl)cc1", "observed value": 3.41}
{"smiles record": "Cc1nnc(Cl)c(-c2cccn2C)c1-c1ccc(Cl)cc1", "observed value": 3.24}
{"smiles record": "Cc1nc(-c2c(Cl)nnc(C)c2-c2ccc(Cl)cc2)cs1", "observed value": 2.82}

Data point: Cc1nnc(Cl)c(-c2nc(Cl)c(Cl)s2)c1-c1ccc(Cl)cc1 ; chromatographic logP = 4.32

###

- protocol summary: logP determination by reversed-phase HPLC (C18), EEC Directive 79/831 Annex V.A8
- Assay type: physicochemical
- measurement parameters: HPLC method of the footnote to Tabelle 1
Use 3 as the dividing line for logP, with the line itself on the met side and lower values as not met.

{"smiles record": "Cc1n[nH]c(=O)c(-c2cccs2)c1-c1ccc(Cl)cc1", "label value": "not met"}
{"smiles record": "Cc1nc(-c2c(-c3ccc(Cl)cc3)c(C)n[nH]c2=O)cs1", "label value": "not met"}
{"smiles record": "Cc1n[nH]c(=O)c(-c2nc(Cl)c(Cl)s2)c1-c1ccc(Cl)cc1", "label value": "met"}

Continue with the next compound.
Check this compound for logP at or above 3: Cc1n[nH]c(=O)c(-c2cccn2C)c1-c1ccc(Cl)cc1
not met
